Ref: ChEMBL document CHEMBL4000247

For each of the compounds below, state its KA.
molecular target: Carbonic anhydrase 2 (Homo sapiens); assay: Activation of recombinant human carbonic anhydrase 2 incubated for 15 mins prior to testing by stopped flow CO2 hydrase assay
Give the number; nM is assumed, so skip it.

Could you share which KA value was measured for CCCCCCNC(=O)n1cnc(N)n1 ? 345

Look up KA: CCCCNC(=O)n1cnc(N)n1 1.7

Which KA reading was recorded for the compound CCCCCCCCCCCCCCCCCCNC(=O)n1cnc(N)n1 ? 1680

Look up KA: Cc1ccc(NC(=O)n2cnc(N)n2)cc1NC(=O)n1cnc(N)n1 826

* * *

molecular target: UniProt P00918; assay: Activation of recombinant human carbonic anhydrase 2 incubated for 15 mins prior to testing by stopped flow CO2 hydrase assay
// class assignment uses KA with these ranges: Low = under 10 nM, Mid = from 10 nM up to 90 nM, High = 90 nM and over

Quick check: band for Nc1ncn(C(=O)NCCCCCCCCCCCCNC(=O)n2cnc(N)n2)n1 Mid

Returns: class label. Input: Nc1ncn(C(=O)Nc2ccc(-c3ccc(NC(=O)n4cnc(N)n4)cc3)cc2)n1 Mid

Any idea which band O=C(O)c1ncn(C(=O)NCCCCCCNC(=O)n2cnc(C(=O)O)n2)n1 is in? High

Record CC1(C)CC(NC(=O)n2cnc(N)n2)CC(C)(CNC(=O)n2cnc(N)n2)C1 (stereo not given) — which class? High

Which of the defined bands does the recorded KA of Nc1ncn(C(=O)Nc2ccc(Cc3ccc(NC(=O)n4cnc(N)n4)cc3)cc2)n1 sit within? Low

Lab log: Nc1ncn(C(=O)NCCCCCCCCNC(=O)n2cnc(N)n2)n1 — assign KA category Mid

Record COc1cc(-c2ccc(NC(=O)n3cnc(N)n3)c(OC)c2)ccc1NC(=O)n1cnc(N)n1 — which class? High

For Nc1ncn(C(=O)NCCCCCCNC(=O)n2cnc(N)n2)n1 , which KA bin applies? Mid

Which band does Nc1ncn(C(=O)Nc2ccc(NC(=O)n3cnc(N)n3)cc2)n1 fall in? Low

* * *

target: Carbonic anhydrase 1 (Homo sapiens) (UniProt P00915); assay: Activation of recombinant human carbonic anhydrase 1 incubated for 15 mins prior to testing by stopped flow CO2 hydrase assay
Sequence (P00915 2-261 limits assumed): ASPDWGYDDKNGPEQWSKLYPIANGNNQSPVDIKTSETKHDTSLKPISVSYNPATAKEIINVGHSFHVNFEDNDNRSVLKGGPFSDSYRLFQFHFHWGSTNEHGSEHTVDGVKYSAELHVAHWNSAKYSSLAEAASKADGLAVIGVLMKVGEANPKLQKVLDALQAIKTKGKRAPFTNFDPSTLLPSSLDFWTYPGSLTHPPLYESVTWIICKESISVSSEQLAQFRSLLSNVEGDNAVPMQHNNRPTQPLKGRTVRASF
readout-name: KA (nM)
Give just the numeric value; nM need not be written.

Returns the measured KA for the input molecule. Input: CCCCNC(=O)n1cnc(N)n1 6.1

Form field: reported KA of Nc1ncn(C(=O)Nc2ccc(NC(=O)n3cnc(N)n3)cc2)n1 65

Fill in the blank: the reported KA of CCCCCCCCCCCCCCCCCCNC(=O)n1cnc(N)n1 is ____. 987

I am curious: what KA value has been reported for COc1cc(-c2ccc(NC(=O)n3cnc(N)n3)c(OC)c2)ccc1NC(=O)n1cnc(N)n1 ? 637

// KA lookup, key: Nc1ncn(C(=O)Nc2ccc(Cc3ccc(NC(=O)n4cnc(N)n4)cc3)cc2)n1 0.94

Param item = CCCCCCNC(=O)n1cnc(N)n1 ; retrieve measured KA. 123

* * *

target: Carbonic anhydrase 1 (Homo sapiens); assay: Activation of recombinant human carbonic anhydrase 1 incubated for 15 mins prior to testing by stopped flow CO2 hydrase assay
readout-name: log10 of KA (log10 of the value in nM)
Kindly note that the scale is log10 and the underlying KA is in nM.

Using the record for Nc1ncn(C(=O)NCCCCCCCCCCCCNC(=O)n2cnc(N)n2)n1 , report its log10 of KA. 2.99

Could you tell me which log10 of KA is on file for Nc1ncn(C(=O)NCCCCCCNC(=O)n2cnc(N)n2)n1 ? 1.62

I am curious: what log10 of KA value has been reported for Nc1ncn(C(=O)NCCCCCCCCNC(=O)n2cnc(N)n2)n1 ? 1.05

Value lookup for log10 of KA; key = Nc1ncn(C(=O)NCCCCNC(=O)n2cnc(N)n2)n1 1.87

Entry O=C(O)c1ncn(C(=O)NCCCCCCNC(=O)n2cnc(C(=O)O)n2)n1 has what log10 of KA? 1.14

# lookup: log10 of KA of Cc1ccc(NC(=O)n2cnc(N)n2)cc1NC(=O)n1cnc(N)n1 0.62

What value of log10 of KA has been reported for the following compound? Nc1ncn(C(=O)Nc2ccc(-c3ccc(NC(=O)n4cnc(N)n4)cc3)cc2)n1 -0.09

// lookup log10 of KA for CC1(C)CC(NC(=O)n2cnc(N)n2)CC(C)(CNC(=O)n2cnc(N)n2)C1 (stereo not drawn) 3.00
